# Test system: KRAS PDC multicell spheroid viability
# Measurement description: Anticancer human tumor 521955-158-R6-J3-PDC patient-derived pancreatic carcinoma cell line growth inhibition [KRAS2]
# Condition info: second compound 0.1 µM; first compound 0.1 µM; active compounds read low
Could you please report measured viability, T/C for the items listed next?
Answer in %, number only, no unit symbol.

Task item: Quick one: viability, T/C for CC(C)NCC(C(=O)N1CCN(c2ncnc3c2C(C)CC3O)CC1)c1ccc(Cl)cc1 (stereo unspecified) + CC1OCC2(CCN(c3cnc(Sc4ccnc(N)c4Cl)c(N)n3)CC2)C1N ?
Reply: 77.1

Task item: Fill blank: measured viability, T/C of the compound CC(C)n1nc(-c2ccc3oc(N)nc3c2)c2c(N)ncnc21 + CNCc1ccccc1-c1csc(C(C)Nc2nc(C)nc3cc(OC)c(OC)cc23)c1 is ____.
Reply: 46.2

Task item: Could you tell me which viability, T/C is on file for CC1OCC2(CCN(c3cnc(Sc4ccnc(N)c4Cl)c(N)n3)CC2)C1N (stereo unspecified) + CNCc1ccccc1-c1csc(C(C)Nc2nc(C)nc3cc(OC)c(OC)cc23)c1 ?
Reply: 73.2

Task item: Which measured viability, T/C value corresponds to COc1cc2nccc(Oc3ccc(NC(=O)C4(C(=O)Nc5ccc(F)cc5)CC4)cc3)c2cc1OC + COc1cc2nc(C)nc(NC(C)c3cc(N)cc(C(F)(F)F)c3)c2cc1OC1CCOC1 ?
Reply: 91.9

Task item: Quick one: viability, T/C for CN(C)C/C=C/C(=O)Nc1cc2c(Nc3ccc(F)c(Cl)c3)ncnc2cc1O[C@H]1CCOC1 + CC1OCC2(CCN(c3cnc(Sc4ccnc(N)c4Cl)c(N)n3)CC2)C1N ?
Reply: 54.8

Task item: // returns reported viability, T/C for input CC1OCC2(CCN(c3cnc(Sc4ccnc(N)c4Cl)c(N)n3)CC2)C1N (stereo unspecified) + C=CC(=O)N1CCN(c2nc(OCC3CCCN3C)nc3c2CCN(c2cccc4cccc(C)c24)C3)CC1CC#N
Reply: 97.4

----------
What viability, T/C was measured for each of the following?
# Test system: KRAS PDC multicell spheroid viability
# Measurement description: Anticancer human tumor 521955-158-R6-J3-PDC cell line growth inhibition [KRAS2];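 also: drug exposure lasted seven days; 100% = DMSO vehicle wells and lower means fewer viable cells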
# Condition info: second compound 1 µM; first compound 1 µM; active compounds read low

Task item: Fill in: viability, T/C of CC1COCCN1c1cc(-c2ccnn2C)c2ccnc(-c3ccn[nH]3)c2n1 (stereo not given) + C=CC(=O)N1CCN(c2nc(=O)n(-c3c(C)ccnc3C(C)C)c3nc(-c4c(O)cccc4F)c(F)cc23)C(C)C1 is ___
Reply: 79.6%

Task item: Recorded viability, T/C for CCN1CCN(Cc2ccc(Nc3ncc(F)c(-c4cc(F)c5nc(C)n(C(C)C)c5c4)n3)nc2)CC1 + COc1cc2nc(C)nc(NC(C)c3cc(N)cc(C(F)(F)F)c3)c2cc1OC1CCOC1 , please?
Reply: 86.8%

Task item: Requested read-out: viability, T/C. Entry: CC(=O)OC12COC1CC(O)C1(C)C(=O)C(O)C3=C(C)C(OC(=O)C(O)C(NC(=O)OC(C)(C)C)c4ccccc4)CC(O)(C(OC(=O)c4ccccc4)C21)C3(C)C (stereo not given) + CNCc1ccccc1-c1csc(C(C)Nc2nc(C)nc3cc(OC)c(OC)cc23)c1
Reply: 94.8%

Task item: // query viability, T/C value for entry CC1(C)CCC(CN2CCN(c3ccc(C(=O)NS(=O)(=O)c4ccc(NCC5CCOCC5)c([N+](=O)[O-])c4)c(Oc4cnc5[nH]ccc5c4)c3)CC2)=C(c2ccc(Cl)cc2)C1 + C=CC(=O)N1CCN(c2nc(=O)n(-c3c(C)ccnc3C(C)C)c3nc(-c4c(O)cccc4F)c(F)cc23)C(C)C1
Reply: 95.8%

Task item: Recorded viability, T/C for COc1cc2nccc(Oc3ccc(NC(=O)C4(C(=O)Nc5ccc(F)cc5)CC4)cc3)c2cc1OC + CC1OCC2(CCN(c3cnc(Sc4ccnc(N)c4Cl)c(N)n3)CC2)C1N , please?
Reply: 112%

The reported measurements were obtained from PubChem BioAssay AID1963864.
